# study_system: Human CB1 receptor from Receptor Biology (hCB1) (Homo sapiens, UniProt P21554)
# Sequence (P21554 whole entry): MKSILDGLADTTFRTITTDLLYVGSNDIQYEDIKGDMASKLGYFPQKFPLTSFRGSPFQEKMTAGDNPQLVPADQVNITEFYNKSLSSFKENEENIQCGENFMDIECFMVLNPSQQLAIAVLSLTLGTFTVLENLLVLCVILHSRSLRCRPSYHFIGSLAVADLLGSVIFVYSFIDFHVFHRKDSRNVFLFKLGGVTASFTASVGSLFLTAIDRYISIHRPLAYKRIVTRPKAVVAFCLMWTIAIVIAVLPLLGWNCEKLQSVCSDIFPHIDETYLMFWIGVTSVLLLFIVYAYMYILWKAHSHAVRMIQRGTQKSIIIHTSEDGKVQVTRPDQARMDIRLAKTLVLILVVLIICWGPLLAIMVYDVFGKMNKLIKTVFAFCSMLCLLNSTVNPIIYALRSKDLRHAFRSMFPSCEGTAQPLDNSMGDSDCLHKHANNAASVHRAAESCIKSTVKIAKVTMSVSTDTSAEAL
# procedure_summary: hCB1 receptor binding (3H-CP55,940 displacement)
# measurement_setup: hCB1 Ki (nM)
Rule for this label: t means Ki is less than 2000 nM; f means Ki is at least 2000 nM.

See these solved cases before continuing.
compound	class
CCOc1ccc(Cc2nc3cc(C(=O)N(CC(F)(F)F)CC(F)(F)F)ccc3n2CC2CCC2)nc1 [Compound 26]	f
CCOc1ccc(Cc2nc3cc(C(=O)N(CC(F)(F)F)CC(F)(F)F)ccc3n2CC2CCCC2)nc1 [Compound 27]	t
CCOc1ccc(Cc2nc3cc(C(=O)N(CC(F)(F)F)CC(F)(F)F)ccc3n2C[C@H]2CCCO2)cc1 [Compound 14]	f
CCOc1ccc(Cc2nc3cc(C(=O)N(CC(F)(F)F)CC(F)(F)F)ccc3n2CC2CCC2)cc1 [Compound 25]	t
CCOc1ccc(Cc2nc3cc(C(=O)N(CC(F)(F)F)CC(F)(F)F)ccc3n2C[C@@H]2CCCO2)cc1 [Compound 15]	f

A record lists CCOc1ccc(Cc2nc3cc(C(=O)N(CC(F)(F)F)CC(F)(F)F)ccc3n2CC2CCOCC2)cc1 [Compound 13] . Is its Ki below 2000 nM?
t

How about this compound: CCOc1ccc(Cc2nc3cc(C(=O)N(CC(F)(F)F)CC(F)(F)F)ccc3n2CC2CC2)cc1 [Compound 2]
f

How about this compound: CCOc1ccc(Cc2nc3cc(C(=O)N(CC(F)(F)F)CC(F)(F)F)ccc3n2CC2CCCCC2)cc1 [Compound 3]
t

How about this compound: CCOc1ccc(Cc2nc3cc(C(=O)N(CC(F)(F)F)CC(F)(F)F)ccc3n2CC2CCCCC2)nc1 [Compound 30]
t

How about this compound: CCOc1ccc(Cc2nc3cc(C(=O)N(CC(F)(F)F)CC(F)(F)F)ccc3n2CCC(C)C)nc1 [Compound 21]
f

How about this compound: CCOc1ccc(Cc2nc3cc(C(=O)N(CC(F)(F)F)CC(F)(F)F)ccc3n2CC2CCOCC2)nc1 [Compound 20]
f

###

# study_system: human CB2 receptor from BioSignal (hCB2) (Homo sapiens)
# Construct: purchased BioSignal
# Sequence (P34972 whole entry): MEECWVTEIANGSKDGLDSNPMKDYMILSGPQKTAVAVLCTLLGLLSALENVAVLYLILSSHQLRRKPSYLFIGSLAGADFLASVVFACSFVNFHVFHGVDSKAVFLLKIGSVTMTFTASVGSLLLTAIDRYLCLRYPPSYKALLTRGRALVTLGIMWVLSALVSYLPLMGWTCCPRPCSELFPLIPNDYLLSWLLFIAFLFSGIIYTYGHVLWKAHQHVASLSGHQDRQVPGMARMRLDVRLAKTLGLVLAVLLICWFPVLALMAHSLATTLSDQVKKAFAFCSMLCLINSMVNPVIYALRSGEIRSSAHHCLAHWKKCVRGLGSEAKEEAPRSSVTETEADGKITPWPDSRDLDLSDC
# procedure_summary: hCB2 receptor binding (3H-CP55,940 displacement)
# measurement_setup: hCB2 Ki (nM)
Readings of log10(Ki) for the listed molecules
Please keep in mind that the values are log10 of Ki expressed in nM.

Here are 10 molecules together with their reported answers.
molecule	log10(Ki)
CCOc1ccc(Cc2nc3cc(C(=O)N(CC(F)(F)F)CC(F)(F)F)ccc3n2CC2CCCCC2)cc1	-0.10
CCOc1ccc(Cc2nc3cc(C(=O)N(CC(F)(F)F)CC(F)(F)F)ccc3n2C[C@H]2CCCO2)cc1	1.17
CCOc1ccc(Cc2nc3cc(C(=O)N(CC(F)(F)F)CC(F)(F)F)ccc3n2CCC(C)C)nc1	1.19
CCOc1ccc(Cc2nc3cc(C(=O)N(CC(F)(F)F)CC(F)(F)F)ccc3n2CCC(C)C)cc1	0.49
CCOc1ccc(Cc2nc3cc(C(=O)N(CC(F)(F)F)CC(F)(F)F)ccc3n2CC2CCC2)nc1	0.82
CC(C)Oc1ccc(Cc2nc3cc(C(=O)N(CC(F)(F)F)CC(F)(F)F)ccc3n2CC2CCCCC2)nc1	0.43
CCOc1ccc(Cc2nc3cc(C(=O)N(CC(F)(F)F)CC(F)(F)F)ccc3n2CC2CCC2)cc1	0.30
CCOc1ccc(Cc2nc3cc(C(=O)N(CC(F)(F)F)CC(F)(F)F)ccc3n2CC2CCOCC2)cc1	0.73
CCOc1ccc(Cc2nc3cc(C(=O)N(CC(F)(F)F)CC(F)(F)F)ccc3n2CC2CCOCC2)nc1	1.05
CCOc1ccc(Cc2nc3cc(C(=O)N(CC(F)(F)F)CC(F)(F)F)ccc3n2C[C@@H]2CCCO2)cc1	0.98

What measured log10(Ki) is associated with CCOc1ccc(Cc2nc3cc(C(=O)N(CC(F)(F)F)CC(F)(F)F)ccc3n2CC2CCCC2)nc1 on human CB2 receptor from BioSignal (hCB2) (Homo sapiens)?
0.51

How about this molecule: CCOc1ccc(Cc2nc3cc(C(=O)N(CC(F)(F)F)CC(F)(F)F)ccc3n2Cc2ccsc2)nc1
1.15

How about this molecule: CCOc1ccc(Cc2nc3cc(C(=O)N(CC(F)(F)F)CC(F)(F)F)ccc3n2Cc2ccoc2)nc1
1.84

How about this molecule: CCOc1ccc(Cc2nc3cc(C(=O)N(CC(F)(F)F)CC(F)(F)F)ccc3n2Cc2ccncc2)cc1
1.22

How about this molecule: CCOc1ccc(Cc2nc3cc(C(=O)N(CC(F)(F)F)CC(F)(F)F)ccc3n2CC2CCCCO2)cc1 (stereo not shown)
0.52

How about this molecule: CCOc1ccc(Cc2nc3cc(C(=O)N(CC(F)(F)F)CC(F)(F)F)ccc3n2CC2CCCCC2)nc1
0.49

###

# study_system: Human CB1 receptor from Receptor Biology (hCB1) (Homo sapiens)
# procedure_summary: hCB1 receptor binding (3H-CP55,940 displacement)
# measurement_setup: hCB1 membranes, 3H-CP55,940 radioligand; Ki=IC50/(1+[rad]/Kd); read-out: hCB1 Ki
measured_parameter: Ki (µM)
Give the value, in units of µM, as a plain number.

Here are 8 molecules together with their reported answers.
molecule	Ki [µM]
CCOc1ccc(C(C)c2nc3cc(C(=O)N(CC(F)(F)F)CC(F)(F)F)ccc3n2Cc2ccncc2)cc1 (stereo not drawn)	5.57
CC(C)Oc1ccc(Cc2nc3cc(C(=O)N(CC(F)(F)F)CC(F)(F)F)ccc3n2CC2CCCCC2)nc1	0.142
CCOc1ccc(Cc2nc3cc(C(=O)N(CC(F)(F)F)CC(F)(F)F)ccc3n2Cc2ccoc2)nc1	5.81
CCOc1ccc(Cc2nc3cc(C(=O)N(CC(F)(F)F)CC(F)(F)F)ccc3n2CC2CCCCO2)cc1 (stereo not drawn)	1.41
CCOc1ccc(Cc2nc3cc(C(=O)N(CC(F)(F)F)CC(F)(F)F)ccc3n2Cc2ccco2)cc1 [Compound 4]	4.69
CCOc1ccc(Cc2nc3cc(C(=O)N(CC(F)(F)F)CC(F)(F)F)ccc3n2Cc2ccncc2)cc1	5.35
CCOc1ccc(Cc2nc3cc(C(=O)N(CC(F)(F)F)CC(F)(F)F)ccc3n2Cc2ccco2)cc1 [Compound 7]	5.53
CCOc1ccc(Cc2nc3cc(C(=O)N(CC(F)(F)F)CC(F)(F)F)ccc3n2Cc2ccsc2)nc1	5.75

Consider the record given below.
I am curious: what Ki value has been reported for CCOc1ccc(Cc2nc3cc(C(=O)N(CC(F)(F)F)CC(F)(F)F)ccc3n2CCC(C)C)cc1 ?
2.8

###

# study_system: human CB2 receptor from BioSignal (hCB2) (Homo sapiens)
# Construct: purchased BioSignal
# procedure_summary: hCB2 receptor binding (3H-CP55,940 displacement)
# measurement_setup: read-out: hCB2 Ki
measured_parameter: Ki (nM)
Give the value, in units of nM, as a plain number.

What measured Ki is associated with CCOc1ccc(Cc2nc3cc(C(=O)N(CC(F)(F)F)CC(F)(F)F)ccc3n2CC2CC2)cc1 on human CB2 receptor from BioSignal (hCB2) (Homo sapiens)?
5.6
